- target_desc: Solute carrier family 2, facilitated glucose transporter member 1 (Homo sapiens, UniProt P11166)
- Sequence (P11166 whole entry): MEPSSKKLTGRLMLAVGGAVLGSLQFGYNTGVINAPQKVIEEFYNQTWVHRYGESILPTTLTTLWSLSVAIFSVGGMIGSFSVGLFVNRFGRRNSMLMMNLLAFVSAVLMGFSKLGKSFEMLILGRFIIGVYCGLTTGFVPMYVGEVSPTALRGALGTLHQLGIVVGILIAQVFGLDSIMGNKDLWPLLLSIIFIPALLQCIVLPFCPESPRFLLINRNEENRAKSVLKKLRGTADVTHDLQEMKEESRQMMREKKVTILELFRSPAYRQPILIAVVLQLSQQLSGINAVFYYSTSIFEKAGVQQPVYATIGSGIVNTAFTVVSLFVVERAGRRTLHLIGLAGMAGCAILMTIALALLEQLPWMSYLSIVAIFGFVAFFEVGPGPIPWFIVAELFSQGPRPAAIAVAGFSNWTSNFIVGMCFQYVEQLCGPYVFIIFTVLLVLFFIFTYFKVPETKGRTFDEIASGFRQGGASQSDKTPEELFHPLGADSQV
- protocol_details: Inhibition of GLUT1 in human A431 cells assessed as reduction in 2-[1,2-3H]deoxy-D-glucose uptake measured after 30 mins by liquid scintillation counting method
- Assay type: cell-based
readout_type: IC50 (nM)
Express your answer in nM, writing the number without its unit.

input: Item C/C=C(\C)[C@H](O[C@@H]1O[C@H](CO)[C@@H](O)[C@H](O)[C@H]1O)[C@H](C)/C=C(C)/C=C/C/C(C)=C/Cc1nc(OC)c(OC)c(O)c1C has what recorded IC50?
output: 4.9

###

- target_desc: Solute carrier family 2, facilitated glucose transporter member 4 (Mus musculus, UniProt P14142)
- Sequence (P14142 whole entry): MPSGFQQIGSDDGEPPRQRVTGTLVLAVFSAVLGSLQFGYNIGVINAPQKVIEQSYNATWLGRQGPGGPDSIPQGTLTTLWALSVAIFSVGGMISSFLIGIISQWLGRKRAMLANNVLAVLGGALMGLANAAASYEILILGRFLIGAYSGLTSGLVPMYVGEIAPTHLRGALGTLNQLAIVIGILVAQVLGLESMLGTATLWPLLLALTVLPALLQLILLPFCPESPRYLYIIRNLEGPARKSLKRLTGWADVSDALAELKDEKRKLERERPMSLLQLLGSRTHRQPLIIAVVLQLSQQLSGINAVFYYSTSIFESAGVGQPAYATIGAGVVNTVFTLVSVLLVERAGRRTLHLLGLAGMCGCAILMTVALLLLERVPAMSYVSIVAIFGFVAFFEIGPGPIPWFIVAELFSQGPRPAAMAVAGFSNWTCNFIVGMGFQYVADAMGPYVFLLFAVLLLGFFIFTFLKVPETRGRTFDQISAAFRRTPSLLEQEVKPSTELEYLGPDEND
- protocol_details: Competitive inhibition of GLUT4 in mouse 3T3L1 cells assessed as reduction in insulin-stimulated [3H]-2-deoxy-D-glucose uptake preincubated for 20 mins followed by measured for [3H]-2-deoxy-D-glucose addition measured after 1 to 10 mins by Lineweaver-Burk plot analysis
Here the recorded pKi is given for each entry.
Please note pKi is a logarithmic value: minus log10 of concentration in mol/L. Answer with that number alone.

input: Item COc1cc([C@H]2Oc3cc([C@H]4Oc5cc(O)cc(O)c5C(=O)[C@@H]4O)ccc3O[C@@H]2CO)ccc1O [SILYBIN A] has what recorded pKi?
output: 4.22

Now turn to the next compound.
input: Item COc1cc([C@H]2Oc3cc(-c4oc5cc(O)cc(O)c5c(=O)c4O)ccc3O[C@@H]2CO)ccc1O has what recorded pKi?
output: 3.94

###

- target_desc: Solute carrier family 2, facilitated glucose transporter member 4 (Homo sapiens)
- Sequence (P14672 whole entry): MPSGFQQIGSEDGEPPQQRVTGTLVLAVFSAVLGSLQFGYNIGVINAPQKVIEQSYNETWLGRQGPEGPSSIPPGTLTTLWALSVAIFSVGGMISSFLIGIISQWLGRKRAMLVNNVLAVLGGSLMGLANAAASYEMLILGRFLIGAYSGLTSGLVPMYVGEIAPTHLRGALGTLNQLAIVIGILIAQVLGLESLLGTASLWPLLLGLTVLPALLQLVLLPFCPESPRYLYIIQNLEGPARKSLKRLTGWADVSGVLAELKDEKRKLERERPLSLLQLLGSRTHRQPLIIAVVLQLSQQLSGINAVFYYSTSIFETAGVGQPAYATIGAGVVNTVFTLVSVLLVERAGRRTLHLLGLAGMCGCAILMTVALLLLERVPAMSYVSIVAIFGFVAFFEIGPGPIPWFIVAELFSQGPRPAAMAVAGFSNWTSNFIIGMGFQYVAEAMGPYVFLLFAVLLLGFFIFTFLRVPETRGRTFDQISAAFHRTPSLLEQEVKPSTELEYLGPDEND
- protocol_details: Inhibition of human GLUT4 expressed in CHO cells assessed as reduction in glucose uptake
readout_type: pIC50
Please note pIC50 is a logarithmic value: minus log10 of concentration in mol/L. Answer with that number alone.

input: Item C[C@H](NC(=O)[C@H](Cc1ccc(F)cc1)NC(=O)Cc1cccc(O)c1)c1ccccc1 has what recorded pIC50?
output: 6.71

input: And what about the compound COc1ccc(CC(=O)N[C@@H](Cc2ccccc2Br)C(=O)N[C@@H](C)c2ccccc2)cc1 ?
output: 7.05

###

Here the recorded IC50 is given for each entry.
- target_desc: Solute carrier family 2, facilitated glucose transporter member 1 (Homo sapiens, UniProt P11166)
- protocol_details: Inhibition of GLUT1-mediated [14C]glucose uptake in human erythrocytes
- Assay type: cell-based
Express your answer in mM, writing the number without its unit.

input: Item O=C(CCCc1ccc(N(CCCl)CCCl)cc1)OC[C@H]1OC(O)[C@H](O)[C@@H](O)[C@@H]1O (some centres not stated) has what recorded IC50?
output: 0.065

Now turn to the next compound.
input: Item CS(=O)(=O)O[C@H]1[C@H](O)[C@@H](O)C(O)O[C@@H]1CO (some centres not stated) has what recorded IC50?
output: 32

###

Here the recorded pIC50 is given for each entry.
- target_desc: UniProtKB P11166
- protocol_details: Inhibition of human GLUT1 expressed in human DLD1 cells assessed as reduction in glucose uptake
- Format: cell-based
Please note pIC50 is a logarithmic value: minus log10 of concentration in mol/L. Answer with that number alone.

input: Item COc1ccc(CC(=O)N[C@@H](Cc2ccccc2Br)C(=O)N[C@@H](C)c2ccccc2)cc1 has what recorded pIC50?
output: 6.85

Now turn to the next compound.
input: Item C[C@H](NC(=O)[C@H](Cc1ccc(F)cc1)NC(=O)Cc1cccc(O)c1)c1ccccc1 has what recorded pIC50?
output: 6.57

###

Here the recorded IC50 is given for each entry.
- target_desc: Solute carrier family 2, facilitated glucose transporter member 2 (Homo sapiens)
- Sequence (P11168 whole entry): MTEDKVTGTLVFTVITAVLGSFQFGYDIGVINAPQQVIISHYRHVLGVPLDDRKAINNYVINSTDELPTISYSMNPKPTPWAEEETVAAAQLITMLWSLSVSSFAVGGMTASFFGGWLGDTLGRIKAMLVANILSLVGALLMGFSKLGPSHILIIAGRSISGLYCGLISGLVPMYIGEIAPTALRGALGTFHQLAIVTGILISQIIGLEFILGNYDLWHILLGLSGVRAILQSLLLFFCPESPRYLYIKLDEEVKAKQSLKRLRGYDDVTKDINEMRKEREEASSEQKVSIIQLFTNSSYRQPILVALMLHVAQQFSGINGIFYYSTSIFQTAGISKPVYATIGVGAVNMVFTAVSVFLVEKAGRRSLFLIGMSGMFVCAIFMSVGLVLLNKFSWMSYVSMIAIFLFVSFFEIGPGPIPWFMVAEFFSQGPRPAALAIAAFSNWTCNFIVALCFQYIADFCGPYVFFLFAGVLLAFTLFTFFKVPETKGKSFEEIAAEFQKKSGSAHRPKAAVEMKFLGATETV
- protocol_details: Inhibition of human GLUT2 expressed in Xenopus laevis oocytes assessed as reduction in [14C]fructose uptake by scintillation spectrometric method
- Assay type: cell-based

input: Query IC50 on Solute carrier family 2, facilitated glucose transporter member 2 (Homo sapiens) for O=c1c(O)c(-c2cc(O)c(O)c(O)c2)oc2cc(O)cc(O)c12 [MYRICETIN]
output: 12 to 17 µM

Now turn to the next compound.
input: Query IC50 on Solute carrier family 2, facilitated glucose transporter member 2 (Homo sapiens) for O=c1c(O)c(-c2ccc(O)c(O)c2)oc2cc(O)cc(O)c12 [QUERCETIN]
output: 12 to 17 µM

Sourced from ChEMBL document CHEMBL3992488
